protocol-description: Plasma concentration in Crl Sprague-Dawley rat at 0.2 mg/kg, IT measured at 2 hrs by LC-MS/MS analysis
Format: ADME, organism-based
measured-metric: concentration at 2 h (ng/mL)
Give bare numbers, in ng/mL.

Look at this compound and give its reported concentration at 2 h. CC(OC(=O)[C@H](NC(=O)[C@@H](N)CCCCN)C(C)(C)C)OC(=O)N1CCC(OC(=O)C(O)(c2ccccc2)c2ccccc2)CC1.Cl.Cl (stereo partly specified) 1.25

* * *

protocol-description: Plasma concentration in Crl Sprague-Dawley rat at 0.2 mg/kg, IT measured at 0.25 hrs by LC-MS/MS analysis
Type: ADME, organism-based
measured-metric: concentration at 0.25 h (ng/mL)
Give bare numbers, in ng/mL.

Look at this compound and give its reported concentration at 0.25 h. CC(OC(=O)[C@H](NC(=O)[C@@H](N)CCCCN)C(C)(C)C)OC(=O)N1CCC(OC(=O)C(O)(c2ccccc2)c2ccccc2)CC1.Cl.Cl (stereo partly specified) 2.03
